# Tested on: K562 CRISPRi cells
# METHOD NOTES: Constant region variant library pooled growth screen, K562
# Assay type: cell-based, human
# TEST PARAMETERS: sgRNA constant region variants; activity relative to the original, un-modified constant region cr995
molecules and their reported Mean relative activity
Give the figure only, with no unit attached.

MOLECULE	Mean relative activity
cr733 (nucleic acid, listed as DNA, chemistry not fully specified) guide: GTTTAAGAGCTAAGCTGGAAACAGCATAGCAAGTTTAAATAAGGCTAGTCCGTTATCAACTTGAAAAAGTGGCAAAGAGTCTTTGCT	0.807

Now for another entry.
Can you share its Mean relative activity? I mean this molecule: cr931 (nucleic acid, listed as DNA, chemistry not fully specified) guide: GTTTAAGAGCTAAGCTGGAAACAGCATAGCAAGTTTAAATAAGGCTAGTCCGTTATCAACTTGAAAAAGTGGCCCTGAGTCAGGGCT
0.8044
